method.summary: Cytotoxicity on uninfected HeLa cells (MTT, 48 h)
Format: cell-based
particulars: human, read-out: CC50 (reduce cell viability by 50%), ADV7 host cells
outcome.measure: CC50 at 48 h (µM)

[[record]]
smiles_code = "Cc1cccnc1-c1ccc(F)cc1OC(=O)c1ccccc1"
outcome_measure = "CC50 at 48 h"
unit_info = "µM"
obs_value = 843

[[record]]
smiles_code = "O=C(Oc1ccsc1-c1ccccn1)c1ccccc1"
outcome_measure = "CC50 at 48 h"
unit_info = "µM"
obs_value = 1020

[[record]]
smiles_code = "Cc1cccnc1-c1ccc(Br)cc1OC(=O)c1ccccc1"
outcome_measure = "CC50 at 48 h"
unit_info = "µM"
obs_value = 211

[[record]]
smiles_code = "COc1ccc(OC(=O)c2ccccc2)c(-c2ncccc2C)c1"
outcome_measure = "CC50 at 48 h"
unit_info = "µM"
obs_value = 38.9

[[record]]
smiles_code = "Cc1cccnc1-c1ccc(Cl)cc1OC(=O)c1ccccc1"
outcome_measure = "CC50 at 48 h"
unit_info = "µM"
obs_value = 797

[[record]]
smiles_code = "Cc1cccc(OC(=O)c2ccccc2)c1-c1ccccn1"
outcome_measure = "CC50 at 48 h"
unit_info = "µM"
obs_value = 921

